# tested.target: KDR (VEGFR2) (Homo sapiens (Human))
# Sequence (P35968 20-1356): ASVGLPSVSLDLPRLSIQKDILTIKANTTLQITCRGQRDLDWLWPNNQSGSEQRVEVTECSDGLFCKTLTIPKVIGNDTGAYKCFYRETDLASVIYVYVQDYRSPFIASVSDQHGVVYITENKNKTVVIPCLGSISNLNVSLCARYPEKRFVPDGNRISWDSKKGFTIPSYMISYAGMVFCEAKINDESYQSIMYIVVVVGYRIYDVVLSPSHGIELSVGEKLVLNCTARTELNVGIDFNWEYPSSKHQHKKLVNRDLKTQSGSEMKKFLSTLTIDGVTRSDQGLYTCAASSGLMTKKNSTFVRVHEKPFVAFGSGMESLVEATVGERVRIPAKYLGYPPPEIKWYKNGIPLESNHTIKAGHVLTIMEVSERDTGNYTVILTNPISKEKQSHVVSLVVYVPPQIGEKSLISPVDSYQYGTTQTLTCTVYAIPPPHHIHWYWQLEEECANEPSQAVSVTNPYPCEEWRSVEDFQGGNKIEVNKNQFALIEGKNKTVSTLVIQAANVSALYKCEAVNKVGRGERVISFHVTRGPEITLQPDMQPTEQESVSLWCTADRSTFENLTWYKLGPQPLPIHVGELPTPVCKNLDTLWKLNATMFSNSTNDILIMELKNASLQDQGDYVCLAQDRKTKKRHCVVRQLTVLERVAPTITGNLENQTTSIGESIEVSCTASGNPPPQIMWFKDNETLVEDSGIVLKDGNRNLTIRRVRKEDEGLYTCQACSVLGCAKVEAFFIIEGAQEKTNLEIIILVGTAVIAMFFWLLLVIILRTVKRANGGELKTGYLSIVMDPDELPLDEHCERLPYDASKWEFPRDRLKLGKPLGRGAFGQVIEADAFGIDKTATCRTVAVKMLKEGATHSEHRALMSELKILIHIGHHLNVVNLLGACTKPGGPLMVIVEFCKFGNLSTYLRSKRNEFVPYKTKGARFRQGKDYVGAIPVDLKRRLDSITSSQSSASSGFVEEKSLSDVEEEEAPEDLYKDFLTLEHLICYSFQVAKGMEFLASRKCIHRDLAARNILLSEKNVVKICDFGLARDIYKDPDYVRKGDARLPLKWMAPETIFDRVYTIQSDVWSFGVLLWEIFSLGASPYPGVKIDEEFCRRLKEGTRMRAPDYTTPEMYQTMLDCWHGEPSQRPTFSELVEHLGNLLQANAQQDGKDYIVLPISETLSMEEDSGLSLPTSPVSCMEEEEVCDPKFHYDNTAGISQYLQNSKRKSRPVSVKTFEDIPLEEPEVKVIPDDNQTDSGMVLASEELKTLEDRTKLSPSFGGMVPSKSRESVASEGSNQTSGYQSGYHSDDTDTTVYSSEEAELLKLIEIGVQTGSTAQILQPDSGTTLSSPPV
# method.description: Z′-LYTE kinase inhibition assay (Invitrogen), KDR
# Type: biochemical
# condition.set: 1 μM compound, Z′-LYTE method; read-out: % inhibition at 1 μM against KDR
Form field: inhibition at 1 µM (one value per entry).

# example entries with known answers
>>> endpoint_result("O=C(Nc1cccc(C(=O)c2ccc3ncc(N4CCOCC4)nc3c2)c1)Nc1cccc(C(F)(F)F)c1")
"> 89%"
>>> endpoint_result("O=C(Nc1ccc(Cl)cc1)Nc1ccc(F)c(C(=O)c2ccc3nccnc3c2)c1")
"< 70%"
>>> endpoint_result("O=C(Nc1cccc(F)c1)Nc1cc(F)c(F)c(C(=O)c2ccc3ncc(N4CCOCC4)nc3c2)c1F")
"< 70%"
>>> endpoint_result("O=C(Nc1cccc(C(=O)c2ccc3ncc(N4CCCC4)nc3c2)c1)c1ccc(Cl)c(C(F)(F)F)c1")
"70 to 89%"
>>> endpoint_result("O=C(Nc1cc(F)c(F)c(C(=O)c2ccc3ncc(N4CCOCC4)nc3c2)c1F)c1cccc(C(F)(F)F)c1")
"> 89%"
>>> endpoint_result("O=C(Nc1ccc(F)c(C(=O)c2ccc3ncc(N4CCOCC4)nc3c2)c1)c1cccc(F)c1")
"> 89%"

Q: Please report the measured inhibition at 1 µM for "NCCNc1cnc2ccc(C(=O)c3cc(NC(=O)Nc4cc(F)cc(F)c4)ccc3F)cc2n1"
A: 70 to 89%
